Assay: basal 3T3-L1 adipocyte mitochondrial potential changes, profiling panel, cell-based, JC-1 fluorescence, 3T3-L1 adipocytes, 24 h, 100 nL compound (AID 1168); further: test concentration not given here
Details: JC-1 mitochondrial fluorescence, higher = more signal, called active from +8 up or from −8 down
experimental-readout: z-score
The answer should be written as a number, with no unit following it.

Answered examples (3):
Input line: What value of z-score has been reported for the following molecule? CC(=O)OC[C@H]1O[C@@H](ON=C(C)C)[C@H](OC(C)=O)[C@@H](OC(C)=O)[C@@H]1OC(C)=O
Output line: -0.763

Input line: Give the measured z-score of CC(C)(C)N1C(=O)[C@H]2[C@H]3[C@H](O)[C@H](O)CC(=NNC(=O)OCc4ccccc4)[C@H]3CC[C@H]2C1=O .
Output line: -1.49

Input line: Can you look up the measured z-score of C[C@@H](c1ccccc1)N1C(=O)[C@H]2[C@H]3[C@H](O)[C@H](O)CC(=NOC[C@@H](O)COCc4ccco4)[C@H]3CC[C@H]2C1=O for me?
Output line: -0.387

Okay, now this molecule:
Input line: What z-score value was documented for this molecule, CC(C)[C@@H](OCc1ccccc1)[C@H](C)C=NO[C@H](C)c1cn([C@@H]2COC[C@H]2O)nn1 ?
Output line: -0.98

---

Experiment: COS7 lysate on small-molecule microarray, probe aHis, 635 nm (AID 1123);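 further: z-score combines 667nm fluorescence intensity with signal-to-noise per printed compound spot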
Settings: COS7 cell lysate, fluorescence, higher = more signal
experimental-readout: composite z-score
Just the number, please, no unit after it.

Input line: What does the data say about its composite z-score? Entry: CON=C(C)CCN1CCc2nc(-c3ccccc3)c(-c3ccccc3)cc2C1
Output line: -0.556

Input line: # composite z-score lookup, item COC(=O)[C@H](C)NC(=O)CCC1CC(OC(=O)NCc2ccc3c(c2)OCO3)CC2(CCCC(COC(=O)NCCC(C)C)O2)O1 (some centres undefined)
Output line: 0.891

Input line: # lookup: composite z-score of O=C1C=C[C@@H](O)[C@@H]2[C@@H]3C(=O)N(c4cccc(Oc5ccccc5)c4)C(=O)[C@@H]3CC[C@@H]12
Output line: -0.55

Could you now look at the following molecule, please?
Input line: Field request: composite z-score | item: COC(=O)[C@@H]1CC[C@H](C)[C@@H](c2ccc(Br)cc2)N1C[C@H](O)CN=[N+]=[N-]
Output line: 0.653

---

System: Fibrinogen (Alexa647-labelled)
Assay: fibrinogen binders on compound microarrays, profiling panel, artefact control for SMM control-protein annotation, biochemical, small-molecule microarray, 635/667 nm fluorescence (AID 1131);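 further: z-score merges 667 nm fluorescence with per-spot signal-to-noise over triplicate slides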
Details: fibrinogen-A647 binding fluorescence, higher = more signal
// reported composite z-score for each item listed
# print the numeric value only

Input line: If you can, please state the reported composite z-score value of COC(=O)C(C(=O)OC)C1CCCC(=O)C1 (stereo unspecified) .
Output line: 0.372

Input line: // returns reported composite z-score for input COCC#Cc1ccc([C@@H]2N[C@H](C(=O)O)CC[C@H]2C)cc1
Output line: -0.426

Input line: Which composite z-score is listed for COC(=O)CC=C[C@@H](C)[C@@H](C=NOC(C)CN1CCCc2nc(C)c(C)cc21)NS(=O)(=O)c1ccc(C)cc1 (stereo partly specified) ?
Output line: 0.451

Input line: Which composite z-score is reported for this compound? CC(=O)OC[C@H]1O[C@H](C#CCCc2ccccc2)C=C[C@@H]1OC(C)=O
Output line: 0.884

Input line: Fill blank: measured composite z-score of the compound CC(C)[C@@H](OCc1ccccc1)[C@H](C)C=NO[C@@H](C)c1cn([C@H](CO)Cc2ccccc2)nn1 is ____.
Output line: -0.157

Now for another entry.
Input line: # lookup: composite z-score of CCc1cc2c(nc1CC)CCN(CCC(C)=NO[C@@H]1O[C@H](COC(C)=O)[C@@H](OC(C)=O)[C@H](OC(C)=O)[C@H]1OC(C)=O)C2
Output line: 0.816

---

System: PRMT1 (protein arginine N-methyltransferase 1)
Assay: PRMT1 binders on small-molecule microarrays, primary screen, biochemical, small-molecule microarray, 635 nm fluorescence (AID 1088);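 further: binding of Prmt1 protein to compounds spotted on small-molecule microarray slides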
Details: small-molecule microarray binding, higher = more signal
Decide using composite z-score: a value greater than or equal to 1 is YES, a smaller one is NO.

As a guide, the following entries are already answered.
Input line: Evaluate COC(=O)[C@H](C)NC(=O)CCC1CC(OC(=O)NCc2cccc3ccccc23)CC2(CCCC(COC(=O)NCc3ccccc3)O2)O1 (stereo not given in full) : composite z-score at minimum 1?
Output line: YES

Input line: Could you please find out whether CO[C@H]1COC(=O)[C@H](C)COC(=O)[C@H](C)NC(=O)CC=C[C@H]1C has composite z-score that meets 1 or exceeds it?
Output line: YES

Input line: Threshold query (composite z-score >= 1) on O=C1C[C@@H](O)[C@@H](O)[C@@H]2[C@@H]3C(=O)N(Cc4ccccc4)C(=O)[C@@H]3CC[C@H]12
Output line: NO

Input line: composite z-score >= 1 for C[C@@H]1CC[C@H]2C(=O)O[C@@H](COc3ccc(C(C)(C)C)cc3)CN2[C@H]1c1ccc(Br)cc1 ?
Output line: NO

Further cases:
Input line: Quick check: does CC(=O)OC[C@H]1O[C@H](CC=NOC(C)CN2CCCc3nc(C)c(C)cc32)C=C[C@@H]1OC(C)=O (stereo not given in full) have composite z-score greater than or equal to 1?
Output line: YES

---

Assay: E. coli growth modulation, two-sided OD650, primary screen, E. coli filamentation project, strain DRC41, 24 h (AID 1093);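 further: MC1000 strain lacking acrAB efflux and sulA so SOS filamentation is blocked; test concentration not given here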
Settings: OD650, 24 h, higher = more signal, called active from +8 up or from −8 down
# reported z-score; entries follow
Reply: number alone, nothing else.

Consider the following illustrative entries.
Input line: Which z-score reading was recorded for the molecule CC(C)(C)N1C(=O)[C@H]2[C@H]3[C@H](O)[C@H](O)CC(=NNC(=O)OCc4ccccc4)[C@@H]3CC[C@H]2C1=O ?
Output line: 0.45

Input line: Given C[C@]12CCC3c4ccc(OCC5CO5)cc4CCC3C1CC[C@@H]2O (stereo partly drawn) , state its recorded z-score.
Output line: 0.392

Input line: Look up z-score for this molecule: COC(OC)[C@@H](C)[C@H](OC)[C@@H](C)[C@H](OC)c1ccccc1
Output line: 0.17

Input line: So what's the measured z-score for this one? CC(C)(C)N1C(=O)[C@H]2[C@H]3[C@H](O)[C@H](O)CC(=NNC(=O)OCc4ccccc4)[C@H]3CC[C@H]2C1=O
Output line: 0.0955

Input line: Return reported z-score; argument: COC(=O)[C@@H]1CC[C@H](C)[C@@H](c2ccc(C)cc2)N1C(=O)c1ccc(C=NO[C@@H](C)c2cc(-c3c(C)cc(C)cc3C)no2)cc1
Output line: 0.328

Input line: # get_value(readout='z-score', item= C[C@H]1C=CCC(=O)OC[C@H](C)C(=O)N2CCC[C@H]2C(=O)OC1 )
Output line: 0.0085

Input line: z-score for CO[C@@H](C(C)C)[C@@H](C)C1OC(=O)CC1O (stereo partly drawn) ?
Output line: 0.457

Input line: z-score for CC(=O)OC[C@H]1O[C@H](CC=NOC[C@@H](O)[C@H]2O[C@@H]3OC(C)(C)O[C@@H]3[C@H]2O)C=C[C@@H]1OC(C)=O ?
Output line: 0.72

More entries:
Input line: Dear colleague, I am looking for the recorded z-score of the following molecule: COC(=O)[C@H](C)NC(=O)CCC1CC(OC(=O)NCc2cccc3ccccc23)CC2(CCCC(COC(=O)NCCc3ccccc3OC)O2)O1 (stereo partly drawn)
Output line: 0.476

Input line: Entry under review: CC(CCC(=O)OC[C@H]1O[C@H](C#Cc2ccccc2)C=C[C@@H]1Oc1ccc(C)cc1)=NO[C@H](C)c1cn([C@@H]2COC[C@H]2O)nn1 . Reported z-score?
Output line: -0.342

Input line: Look up z-score for this molecule: COc1ccc(OC[C@H]2CN3[C@@H](CC[C@@H](C)[C@@H]3c3ccc(Br)cc3)C(=O)O2)cc1
Output line: -0.915

Input line: Please report the recorded z-score for CC(CCN1CCCCc2nc(C)c(C)cc21)=NO[C@H](C)c1cn([C@@H]2COC[C@H]2O)nn1 .
Output line: 0.681

Input line: // z-score lookup, key: CCOC(=O)CCN1C(=O)[C@H]2[C@H]3[C@H](O)[C@H](O)CC(=NOCC=C(C)CCC=C(C)C)[C@@H]3CC[C@H]2C1=O
Output line: 6.79

---

Experiment: cell viability in Huh7 cells, primary screen, cytotoxicity control for HCV replication inhibitor project, CellTiter-Glo luminescence, basal, 48 h (AID 1143);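 further: Huh7 hepatoma cells carrying a hepatitis C replication reporter with no stimulus; test concentration not given here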
Details: Huh7 HCV replicon, higher = more signal, called active from +8 up or from −8 down
Output Met for z-score not less than -0.5; output Not met otherwise.

Input line: # bool: z-score of CON=C(C)CCC(=O)OC[C@H]1O[C@H](C#Cc2ccccc2)C=C[C@@H]1Oc1ccc(C)cc1 >= -0.5
Output line: Not met

Input line: # check: z-score of COc1ccc(COC(=O)NN=C2C[C@@H](O)[C@@H](O)[C@@H]3[C@@H]4C(=O)N([C@@H](C)c5ccccc5)C(=O)[C@@H]4CC[C@H]23)cc1 is greater than or equal to -0.5
Output line: Not met

Input line: Identify whether the reported z-score of the following compound is -0.5 or greater: CC(C)CN1CCc2nc(-c3ccccc3)c3c(c2C1)CO[C@@H](C)C3
Output line: Not met

Input line: Is z-score for O=C1[C@H]2[C@H]3[C@H](O)[C@H](O)CC(=NOC[C@@H](O)COCc4ccco4)[C@@H]3CC[C@H]2C(=O)N1c1cccc(Oc2ccccc2)c1 at or above -0.5?
Output line: Not met

Input line: Given O=C(NN=C1C[C@@H](O)[C@@H](O)[C@@H]2[C@@H]3C(=O)N(Cc4ccccc4)C(=O)[C@@H]3CC[C@H]12)OCc1ccccc1 , state whether its z-score is at least -0.5.
Output line: Not met

New cases:
Input line: Hi, just wondering whether C[C@@H]1CC[C@H]2C(=O)N3[C@@H](CC[C@@H](C)[C@@H]3c3ccc(Br)cc3)C(=O)N2[C@H]1c1ccc(Br)cc1 shows z-score of -0.5 or higher.
Output line: Not met

Input line: Evaluate COC(=O)CC=C[C@@H](C)[C@@H](C=NOC(C)CN1CCCc2nc(C)c(C)cc21)NS(=O)(=O)c1ccc(C)cc1 (stereo partly drawn) : z-score at minimum -0.5?
Output line: Met

Input line: Could you tell me if the measured z-score of CC(CCC(=O)OC[C@H]1O[C@H](C#Cc2ccccc2)C=C[C@@H]1Oc1ccc(C)cc1)=NOC(C)CN1CCCCc2nc(C)c(C)cc21 (stereo partly drawn) reaches -0.5 or more?
Output line: Not met

Input line: Please tell me: is the compound CC(C)(C)N1C(=O)[C@H]2[C@H]3[C@H](O)[C@H](O)CC(=NNC(=O)OCc4ccccc4)[C@@H]3CC[C@H]2C1=O at or over -0.5 in terms of z-score?
Output line: Met

Input line: # check: z-score of CC1(C)O[C@H]2O[C@H]([C@H](O)CON=C3[C@H]4CCn5c(=O)n(-c6ccccc6)c(=O)n5[C@H]4[C@H](O)[C@@H]4O[C@H]34)[C@H](O)[C@H]2O1 is greater than or equal to -0.5
Output line: Met

Input line: Does the compound CCCC[C@H]1CN2[C@@H](CC[C@@H](C)[C@@H]2c2ccc(Br)cc2)C(=O)O1 have recorded z-score that is -0.5 or more?
Output line: Not met

Input line: Is the recorded value of z-score equal to or greater than -0.5 for this compound? CN1CCc2nc(-c3ccccc3)c(-c3ccccc3)cc2C1
Output line: Met

Input line: Hi team, for CC(=O)OC[C@H]1O[C@H](CC=NOC[C@@H](O)COCc2ccco2)C=C[C@@H]1OC(C)=O , is the recorded z-score at or above -0.5?
Output line: Met
